Consider the following molecules; for each one, report its Ratio IC50.
- Species: Homo sapiens
- Experiment summary: Selectivity index, ratio of IC50 for acetylcholinesterase (unknown origin) to IC50 for butyrylcholinesterase (unknown origin)
Reply briefly: the number, and no unit.

Cc1cc2nc3c(nc2cc1C)C1(C(C#N)=C(N)N2CCNC2=C1[N+](=O)[O-])c1ccccc1-3 (centres undefined) yielded Ratio IC50 of 0.904

N#CC1=C(N)N(Cc2ccccc2)C(NCc2ccccc2)=C([N+](=O)[O-])C12c1ccccc1-c1nc3ccc([N+](=O)[O-])cc3nc12 (centres undefined) yielded Ratio IC50 of 0.483

Cc1cc2nc3c(nc2cc1C)C1(C(C#N)=C(N)N2CCCNC2=C1[N+](=O)[O-])c1ccccc1-3 (centres undefined) yielded Ratio IC50 of 0.6

CC1(C)CNC2=C([N+](=O)[O-])C3(C(C#N)=C(N)N2C1)c1ccccc1-c1nc2ccc([N+](=O)[O-])cc2nc13 (centres undefined) yielded Ratio IC50 of 0.356
